molecular target: DNA-PK (Homo sapiens (Human)); test: DNA-PK Enzyme-Linked Immunosorbent Assay (phosphorylation of GST-p53 (1-101) peptide); format: biochemical; details: ELISA, ATP 20 μM
pIC50: −log10 of the molar value. Counter-ions that a name gives are not always drawn.
measurementType: pIC50

Check out these entries, answers already filled in.
                                   compound  measurementtype  observedresult
0  CC(C#N)c1cccc(S(=O)(=O)Nc2cc(-c3ccc4ncc5c(c4c3)C3(CC3)C(=O)N5C)cnc2OCCCN(C)C)c1 (stereo not drawn) [Example 46]            pIC50          > 9.30
1  CN(C)CCCOc1ncc(-c2ccc3ncc4c(c3c2)C2(CCC2)C(=O)N4C)cc1NS(=O)(=O)N1CCOCC1 [Example 136, hydrochloride]            pIC50    7.00 to 9.00
2  CN1C(=O)C2(CCC2)c2c1cnc1ccc(-c3cnc(OCCCN4CCC(F)CC4)c(NS(C)(=O)=O)c3)cc21 [Example 286]            pIC50          > 9.30
3  COCCS(=O)(=O)Nc1cc(-c2ccc3ncc4c(c3c2)C2(CC2)C(=O)N4C)cnc1OCCCN(C)C [Example 83]            pIC50    7.00 to 9.00
4  CN(C)CCCOc1ncc(-c2ccc3c(c2)c2c(c[n+]3[O-])N(C)C(=O)C23CC3)cc1NS(=O)(=O)c1ccccc1 [Example 123]            pIC50    7.00 to 9.00

Return reported pIC50; argument: CN1CCN(c2ncc(-c3ccc4ncc5c(c4c3)C3(CCC3)C(=O)N5C)cc2NS(=O)(=O)C2CC2)CC1 [Example 227, hydrochloride] > 9.30

Return reported pIC50; argument: CN(C)CCCOc1ncc(-c2ccc3ncc4c(c3c2)C2(CC2)C(=O)N4CC2COC2)cc1NS(=O)(=O)c1ccccc1 [Example 37] 7.00 to 9.00

Return reported pIC50; argument: CN1C(=O)C2(CC2)c2c1cnc1ccc(-c3cnc(N4CCC(N5CCCCC5)CC4)c(NS(=O)(=O)c4ccccc4)c3)cc21 [Example 213, methanesulfonate] 7.00 to 9.00

Return reported pIC50; argument: CN1C(=O)C2(CCC2)c2c1cnc1ccc(-c3cnc(N4CCC(N5CCCCC5)CC4)c(NS(=O)(=O)c4ccccc4F)c3)cc21 [Example 203] 9.00 to 9.30
